Taken from patent US9266900B2.

# method_description: Thermal aging of 85% solution of the distillate in water at 85 deg C. up to 28 days
# Type: physicochemical
# condition_notes: 85% solution, time zero, diluted (20%)
reported_property: APHA color, time zero
Respond numerically, and do not add a unit to the figure.

compound: COc1cc(C)cc(OC)c1O [DMMP, 2,6-dimethoxy-4-methylphenol]
APHA color, time zero: 5

Qu. Quick one: APHA color, time zero of COc1cc(C(C)(C)C)c(O)c(C(C)(C)C)c1 [DTMP, 2,6-di-tert-butyl-4-methoxyphenol] ?
Ans. 0

Qu. Quick one: APHA color, time zero of Cc1c(C)c2c(c(C)c1O)CCC(C)(C(=O)O)O2 (stereo not drawn) [Trolox™] ?
Ans. 5

----------
# method_description: Thermal aging of neat distillate in 85 deg C. oven under air up to 28 days
# Assay type: physicochemical
# condition_notes: neat distillate, time zero, UV/vis

compound: CC(C)(C)c1cc(O)ccc1O [TBHQ, tert-butylhydroquinone]
APHA color, time zero: 110
--
compound: COc1ccc(O)c(C(C)(C)C)c1 [BHA, butylated hydroxyanisole]
APHA color, time zero: less than 15
--
compound: COc1cc(C)cc(OC)c1O [DMMP, 2,6-dimethoxy-4-methylphenol]
APHA color, time zero: less than 15
--
compound: Cc1c(C)c2c(c(C)c1O)CCC(C)(C(=O)O)O2 (stereo not drawn) [Trolox™]
APHA color, time zero: 15

----------
# method_description: Thermal aging of 85% solution of the distillate in water at 85 deg C. up to 28 days
# Assay type: physicochemical
# condition_notes: 85% solution, 85 deg C., 28 days
reported_property: furfural concentration, final sample (ppm)
The response must be a number in ppm with no trailing unit.

compound: Cc1c(C)c2c(c(C)c1O)CCC(C)(C(=O)O)O2 (stereo not shown) [Trolox™]
unit_symbol: ppm
reading: 512

Qu. Quick one: furfural concentration, final sample of CCCC(c1cc(C(C)(C)C)c(O)cc1C)c1cc(C(C)(C)C)c(O)cc1C [BBTC, 4,4′-butylidenebis(6-t-butyl-m-cresol)] ?
Ans. 298

Qu. Quick one: furfural concentration, final sample of CC(C)(C)c1cc(O)ccc1O [TBHQ, tert-butylhydroquinone] ?
Ans. 257

Qu. Quick one: furfural concentration, final sample of COc1cc(C(C)(C)C)c(O)c(C(C)(C)C)c1 [DTMP, 2,6-di-tert-butyl-4-methoxyphenol] ?
Ans. 88

----------
# method_description: Thermal aging of 85% solution of the distillate in water at 85 deg C. up to 28 days
# Format: physicochemical
# condition_notes: 85% solution, initial
reported_property: furfural concentration, initially

compound: CC(C)(C)c1cc(O)ccc1O [TBHQ, tert-butylhydroquinone]
reading: less than 1 ppm
--
compound: Cc1c(C)c2c(c(C)c1O)CCC(C)(C(=O)O)O2 (stereo not shown)
reading: less than 1 ppm
--
compound: CCCC(c1cc(C(C)(C)C)c(O)cc1C)c1cc(C(C)(C)C)c(O)cc1C
reading: less than 1 ppm

----------
# method_description: Heating of isosorbide distillate in 200° C. oil bath for 1 hr under air, APHA color by UV/vis
# Format: physicochemical
# condition_notes: 0.5 g diluted with 2 mL water
Measured APHA color after heating of individual entries
Respond numerically, and do not add a unit to the figure.

Qu. Quick one: APHA color after heating of COc1ccc(O)c(C(C)(C)C)c1 [BHA, butylated hydroxyanisole] ?
Ans. 222

Qu. Quick one: APHA color after heating of `COc1cc(C)cc(OC)c1O` ?
Ans. 205

----------
# method_description: Thermal aging of neat distillate in 85 deg C. oven under air up to 28 days
# Type: physicochemical
# condition_notes: neat distillate, 85 deg C., 28 days
# Procedure: The DTMP-stabilized distillate was further tested for color storage stability by thermal aging over a more extended period of time, in particular, by preparing typically five 10 mL headspace vials of each of the neat distillate and an 85% solution of the distillate in water in 0.5 gram sample portions. One vial of the set of five for the neat distillate or the 85% solution was set aside as the “time zero” data point. The time zero sample was diluted with 2 mL of water and analyzed. […]
reported_property: formic acid after 28 days (ppm)
The response must be a number in ppm with no trailing unit.

compound: Cc1c(C)c2c(c(C)c1O)CCC(C)(C(=O)O)O2 (stereo not drawn) [Trolox™]
reading: 3291

Qu. Quick one: formic acid after 28 days of COc1ccc(O)c(C(C)(C)C)c1 [BHA, butylated hydroxyanisole] ?
Ans. 21

Qu. Quick one: formic acid after 28 days of COc1cc(C(C)(C)C)c(O)c(C(C)(C)C)c1 [DTMP, 2,6-di-tert-butyl-4-methoxyphenol] ?
Ans. 39

Qu. Quick one: formic acid after 28 days of CC(C)(C)c1cc(O)ccc1O [TBHQ, tert-butylhydroquinone] ?
Ans. 3458

Qu. Quick one: formic acid after 28 days of COc1cc(C)cc(OC)c1O [DMMP, 2,6-dimethoxy-4-methylphenol] ?
Ans. 74

----------
Measured antioxidant recovered in the distillate, yield of individual entries
# method_description: Distillation of crude isosorbide mixture with added antioxidant: co-distillation and initial distillate color
# Type: physicochemical
# condition_notes: co-distilled with isosorbide
The response must be a number in % with no trailing unit.

compound: COc1cc(C(C)(C)C)c(O)c(C(C)(C)C)c1 [DTMP, 2,6-di-tert-butyl-4-methoxyphenol]
reading: 50
//
compound: COc1cc(C)cc(OC)c1O [DMMP, 2,6-dimethoxy-4-methylphenol]
reading: 84
//
compound: COc1ccc(O)c(C(C)(C)C)c1 [BHA, butylated hydroxyanisole]
reading: 63

Kindly review the next compound as well.
Qu. Quick one: antioxidant recovered in the distillate, yield of COc1cccc(OC)c1O [DMP, 2,6-dimethoxyphenol] ?
Ans. 64

----------
Measured formic acid concentration, final sample of individual entries
# method_description: Thermal aging of 85% solution of the distillate in water at 85 deg C. up to 28 days
# Format: physicochemical
# condition_notes: 85% solution, 85 deg C., 28 days
The response must be a number in ppm with no trailing unit.

molecule: COc1cc(C)cc(OC)c1O
reported_property: formic acid concentration, final sample
unit_symbol: ppm
reading: 63
--
molecule: CC(C)(C)c1cc(O)ccc1O [TBHQ, tert-butylhydroquinone]
reported_property: formic acid concentration, final sample
unit_symbol: ppm
reading: 770
--
molecule: CCCC(c1cc(C(C)(C)C)c(O)cc1C)c1cc(C(C)(C)C)c(O)cc1C
reported_property: formic acid concentration, final sample
unit_symbol: ppm
reading: 4264
--
molecule: COc1ccc(O)c(C(C)(C)C)c1 [BHA, butylated hydroxyanisole]
reported_property: formic acid concentration, final sample
unit_symbol: ppm
reading: 44
--
molecule: COc1cc(C(C)(C)C)c(O)c(C(C)(C)C)c1
reported_property: formic acid concentration, final sample
unit_symbol: ppm
reading: 250

Kindly review the next molecule as well.
Qu. Quick one: formic acid concentration, final sample of Cc1c(C)c2c(c(C)c1O)CCC(C)(C(=O)O)O2 (stereo not drawn) ?
Ans. 3360

----------
# method_description: Thermal aging of neat distillate in 85 deg C. oven under air up to 28 days
# Format: physicochemical
# condition_notes: neat distillate, 85 deg C., 28 days
Measured furfural after 28 days of individual entries
# output: number + unit

Some compounds with known furfural after 28 days results, for comparison:
compound: CC(C)(C)c1cc(O)ccc1O [TBHQ, tert-butylhydroquinone]
furfural after 28 days: 182 ppm

compound: CCCC(c1cc(C(C)(C)C)c(O)cc1C)c1cc(C(C)(C)C)c(O)cc1C
furfural after 28 days: 298 ppm

compound: COc1cc(C(C)(C)C)c(O)c(C(C)(C)C)c1
furfural after 28 days: 18 ppm

Kindly review the next compound as well.
Qu. Quick one: furfural after 28 days of Cc1c(C)c2c(c(C)c1O)CCC(C)(C(=O)O)O2 (stereo not shown) ?
Ans. 460 ppm

----------
# method_description: Thermal aging of 85% solution of the distillate in water at 85 deg C. up to 28 days
# Format: physicochemical
# condition_notes: 85% solution, 85 deg C., day 28, final diluted (20%)
reported_property: APHA color, day 28

Some molecules with known APHA color, day 28 results, for comparison:
molecule: COc1cc(C(C)(C)C)c(O)c(C(C)(C)C)c1 [DTMP, 2,6-di-tert-butyl-4-methoxyphenol]
reported_property: APHA color, day 28
reading: 150
--
molecule: COc1cc(C)cc(OC)c1O [DMMP, 2,6-dimethoxy-4-methylphenol]
reported_property: APHA color, day 28
reading: 50
--
molecule: CCCC(c1cc(C(C)(C)C)c(O)cc1C)c1cc(C(C)(C)C)c(O)cc1C [BBTC, 4,4′-butylidenebis(6-t-butyl-m-cresol)]
reported_property: APHA color, day 28
reading: more than 500
--
molecule: CC(C)(C)c1cc(O)ccc1O [TBHQ, tert-butylhydroquinone]
reported_property: APHA color, day 28
reading: more than 500
--
molecule: COc1ccc(O)c(C(C)(C)C)c1 [BHA, butylated hydroxyanisole]
reported_property: APHA color, day 28
reading: 30

Qu. Quick one: APHA color, day 28 of Cc1c(C)c2c(c(C)c1O)CCC(C)(C(=O)O)O2 (stereo not drawn) [Trolox™] ?
Ans. more than 500
